Origin of values: ChEMBL document CHEMBL1128648

# Species: Mus musculus
# assay.explanation: Percent change in punch weights [right ear(received drug) -left ear(received vehicle)] was determined in mice at a dose of 1 mg/ear
# Assay type: functional
observation.type: Change (%)

compound	reported.result
CCCCCCCCCCC#Cc1csc([C@@H](O)[C@@H](N)CO)c1.O=C(O)CCC(=O)O (stereo in doubt; 19 (+))	-63
CCCCCCCCCCCCC/C=C/[C@@H](O)[C@@H](N)CO	-74
CC(=O)O.CCCCCCCCCCC#Cc1ccc([C@@H](O)[C@@H](N)CO)s1	-81
CCCCCCCCCCC#Cc1csc([C@@H](O)[C@@H](N)CO)c1.Cl (stereo in doubt; 3a (+/-))	-81
CC(=O)O.CCCCCCCCCCC#Cc1cccc([C@@H](O)[C@@H](N)CO)c1 (stereo in doubt; 10 (-))	-74
CC(=O)O.CCCCCCCCCCC#Cc1cccc([C@@H](O)[C@@H](N)CO)c1 (racemic)	-82
CCCCCCCCCCC#Cc1csc([C@@H](O)[C@@H](N)CO)c1.O=C(O)CCC(=O)O (stereo in doubt; 18 (-))	-73
